Entry source: ChEMBL document CHEMBL4665738

test: Oral bioavailability in rat at 5 mg/kg; format: ADME, organism-based; conditions: in vivo

smiles	bioavailability [%]
N#Cc1cccc(CNc2ccc3ncnc(Nc4ccc(F)c(Cl)c4)c3c2)c1	21

* * *

Listed here are molecules together with their documented IC50.
test system: Middle East respiratory syndrome-related coronavirus; assay: Antiviral activity against Middle East respiratory syndrome coronavirus MERS-CoV/KOR/KNIH/002_05_2015 infected in African green monkey Vero cells assessed as reduction in virus induced cytopathic effect after 24 hrs by immunofluorescence assay; type: functional, organism-based; conditions: MERS-CoV/KOR/KNIH/002_05_2015, Vero

smiles	unit-label	value-prefix	IC50
N#Cc1ccccc1CNc1ccc2ncnc(Nc3ccc(C(F)(F)F)cc3)c2c1	µM	>	25
NC(=O)c1cccc(CNc2ccc3ncnc(Nc4ccc(F)c(Cl)c4)c3c2)c1	µM	>	25
N#Cc1ccccc1CNc1ccc2ncnc(Nc3ccc(F)c(Cl)c3)c2c1	µM	>	25
N#Cc1cccc(/C=C/C(=O)Nc2ccc3ncnc(Nc4ccc(F)c(Cl)c4)c3c2)c1	µM	>	25
N#Cc1cccc(C(=O)Nc2ccc3ncnc(Nc4ccc(F)c(Cl)c4)c3c2)c1	µM	>	25
COc1cccc(CNc2ccc3ncnc(Nc4cccc(Cl)c4)c3c2)c1	µM	>	25
O=[N+]([O-])c1ccccc1CNc1ccc2ncnc(Nc3ccc(F)c(Cl)c3)c2c1	µM	=	3.3
Fc1ccc(CNc2ccc3ncnc(Nc4ccc(F)c(Cl)c4)c3c2)cc1F	µM	=	4.6
COc1cccc(CNc2ccc3ncnc(Nc4cccc(C(C)=O)c4)c3c2)c1	µM	>	25
O=[N+]([O-])c1cccc(CNc2ccc3ncnc(Nc4ccc(F)c(Cl)c4)c3c2)c1	µM	=	6.1
N#Cc1cccc(CNc2cc3c(Nc4ccc(F)c(Cl)c4)ncnc3cc2O)c1	µM	>	25
Oc1ccccc1CNc1ccc2ncnc(Nc3ccc(F)c(Cl)c3)c2c1	µM	=	3.6
COc1cccc(CNc2ccc3ncnc(Nc4ccc(C#N)cc4)c3c2)c1	µM	>	25
O=[N+]([O-])c1ccc(CNc2ccc3ncnc(Nc4ccc(C(F)(F)F)cc4)c3c2)cc1	µM	=	3.3
COc1cccc(CNc2ccc3ncnc(Nc4ccc(F)cc4)c3c2)c1	µM	=	22.7
N#Cc1cccc(CNc2ccc3ncnc(Nc4ccc(F)c(Cl)c4)c3c2)c1	µM	=	0.157
CCCCN(CCCC)c1ccc2ncnc(Nc3ccc(F)c(Cl)c3)c2c1	µM	>	25
Fc1ccc(Nc2ncnc3ccc(NCc4cccc(C(F)(F)F)c4)cc23)cc1Cl	µM	=	2.3
CC(=O)Nc1ccc2ncnc(Nc3ccc(F)c(Cl)c3)c2c1	µM	>	25
COc1cc2ncnc(Nc3ccc(F)c(Cl)c3)c2cc1NCc1cccc(C#N)c1	µM	=	5.8
O=[N+]([O-])c1cccc(CNc2ccc3ncnc(Nc4ccc(C(F)(F)F)cc4)c3c2)c1	µM	=	3.7
